# ASSAY OVERVIEW: protease stability score; higher = more stable; yeast display proteolysis, trypsin and chymotrypsin;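 further: log10 excess protease needed over predicted unfolded state with 0 meaning unfolded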
EXPERIMENTAL ENDPOINT: protease stability score

[[record]]
item_sequence = "DEEVLDFVKTMIKVEETGDEEKLKEMFDKNVKARVGDKKYHGMDHQARTIRKERESIKFKIKSITMRYKDGRVHASARVVRHENGKPDEYRETYVLQIHNGKVKTYSKQTDS"
experimental_endpoint = "protease stability score"
endpoint_result = -0.188

[[record]]
item_sequence = "DEKETKKVLEQAAKLFVNGDVHRVMQLGADDVEVEYGDERYHGKDAAKRVIEKHQKLGIKVEYDELHVEGDRVKAKVRADQAGTTAHFTFEYKATGQRVDKMRVKYDETAQKMIKHG"
experimental_endpoint = "protease stability score"
endpoint_result = -0.23

[[record]]
item_sequence = "DDHDRQKLSEWYKNYESGDPDKLVDMADPNARFQYGDKHVRGREQIHRQWRKELTEQRFTVVKMSASDHNGVIDMKFTNEVEHNGRPDRRKFSFTFRVRNGQAQEFDLQTTK"
experimental_endpoint = "protease stability score"
endpoint_result = 0.014

[[record]]
item_sequence = "DEDEKMKRAMKKLNEVQNTGNEKTLANLMDPNARMDIGDKRYHGREQVTTAVKDIQRRVDHVEWRLTDLKQDGDKLDAKADVIFRTNGTQTNRHADMKLRDVNGQLVIVEYVIS"
experimental_endpoint = "protease stability score"
endpoint_result = -0.093

[[record]]
item_sequence = "DDDVVRKAHSFFRQYQRGNPDHLLKMMDPNARVRYGDKTYQGREDLKEILQHQLDRIRIRVKRMSLRAENGHLNVEVDEVLEHNGEPRRATADVKVTWRNGRIHEMQVVWRG"
experimental_endpoint = "protease stability score"
endpoint_result = 0.27

[[record]]
item_sequence = "DEEQVRKVVEQLLKMLQNKNTEEIVKLVKEDATFTLGDETRRGQEDVRKLVQRLKEQGAEFHTHEVRVKGGEAKAKTQWHVANREVHAEVKYVVRGDKVEKVEVRWSEEAKKALKEG"
experimental_endpoint = "protease stability score"
endpoint_result = -0.071

[[record]]
item_sequence = "DEEQQKEQKKRLREMIETNNEDELQRQADKDVKVVVGDQTYHGREEARKWVHELKRRVDHVRVDRVEAHGNKISARYRASVNGETQRYNMVIHITNGRIQHMRVTEG"
experimental_endpoint = "protease stability score"
endpoint_result = 0.894

[[record]]
item_sequence = "DEEALNLFHRMINAIQENDPDTLHRLVDPNARIQIGDHDIHGMKTYVREVEKTLRSMRIKFDIKSVDVTGDKVVIDEKVDFDINGKPVHNKVEMRIKAHNGTVKHLDWKVPEDELKKIEE"
experimental_endpoint = "protease stability score"
endpoint_result = -0.232

[[record]]
item_sequence = "DEDKEIRKFIKNNKDILKNGDPREYVRQMDPNAKMQYGDKQVRGNDQLERHLHTKLKRIDSQSVDFKDVDLKGDKIRLRARRTYQFNGRTSSEEFVVVMTFTNGQARVHKINYK"
experimental_endpoint = "protease stability score"
endpoint_result = 0.103

[[record]]
item_sequence = "DQEEAKEVAEKVMKAVENGDEKKLKDLIDEGVKYEVGDTQQHGPEVAVKVVQYLQKKGVRLEFKEVQHHGNQVHTKIEYQNGDETDTVEATAEVKGGKIDQVQIHASETVVKWIKHG"
experimental_endpoint = "protease stability score"
endpoint_result = 0.088

[[record]]
item_sequence = "DDTQRKRIEEYWTAVKTGDEDRLTELVDEDARVRIGDKEWSGREEIVRRIHDHVRQMRVSLEFKRITVNNGKVQLHAEVEYEHNGKPDTAKVELSMELTNGKFKSNDMQIHK"
experimental_endpoint = "protease stability score"
endpoint_result = 0.607


====

protease stability score for assorted sequences
# ASSAY OVERVIEW: protease stability score; higher = more stable; yeast display proteolysis, trypsin and chymotrypsin;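 further: log10 excess protease needed over predicted unfolded state with 0 meaning unfolded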
EXPERIMENTAL ENDPOINT: protease stability score

[[record]]
item_sequence = "DEEAAKRLENILKAEERNDEDSLRRLMDKDAHINVGDRQVHGMDRRRENVQHQSRRSDIQLESINKHENGDTVHVDVVRRYQHNGRPSRERFDAVAQVHNGKMRSMTAQDSQ"
endpoint_result = -0.44

[[record]]
item_sequence = "DEHLLKEAEKHLKQIERGNPDEAVKMVDPNAKFHIGDKTIHGREHWREWVERQVKDQRFKIRLDDMEDHNGKLVLEVTATYDINGKPVTLTVRWEFDIHNGRAQSVRVQVDPKQQEDLKR"
endpoint_result = 0.535

[[record]]
item_sequence = "DDSKAEKFARDYVKNLHRGNQDQLARMVDPNVHFEYGDKQVHGREDYKQFNRRLRERVDHIQLKDFRIQGEKIRIEANFNVNGVNADIVFNFQIENGRVTRANMHFRSEDQEKQFHQ"
endpoint_result = 0.161

[[record]]
item_sequence = "DERVAHEFVKAINKGDPDRLNELADKNARAEVGDKTFHGREKLEQMWKQWKKMVDHIHIRRVRVHNGHIHVDYVVNIDGQNNQLEIKAVVENGKVQEVKIQVTDEQNQDKLRKKMD"
endpoint_result = 1.25

[[record]]
item_sequence = "DESLHRWYERLQEALEHGDEDRLRKNADKDVQVDVGDKRVHGSEHYAHELVRESREMDFHIHRMEVSVTGNRITVDYVYDREHNGTPQSKRVQERYQAHNGKLKRASVQETD"
endpoint_result = -0.093

[[record]]
item_sequence = "DRQVVRDAQTIFRLEKHGNENDVRRMADPNVDVNIGDKEIRGREEFAKSMRRKRDEIRVSLEIKNWTTTGDKANIDAKMQEEHNGRPSEKRVHIIVTATNGRMKSAHYHNTK"
endpoint_result = -0.006


====

# ASSAY OVERVIEW: protease stability score; higher = more stable; yeast display proteolysis, trypsin and chymotrypsin;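 further: log10 excess protease needed over predicted unfolded state with 0 meaning unfolded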
Binary classification by protease stability score, with 0.2 as an inclusive lower bound for 1.0; all other cases are 0.0.

[[record]]
item_sequence = "DEEANEMAKSYLEAKTRGDPRSAKELADKDAEFVVGDKTYQGMDENSDNMRRERDEQRTKVKILHLDDRPNHAVIKYRVEVQTNGQPRTKNYELNLQYSNGKIKYVRVEDRK"
discrete_label = 0.0

[[record]]
item_sequence = "DEKQVLELIRDVMKHVQNGNQEEVKKHGKPSVEVILFNERYTGPEALVRLAEFAQKLGAQFEYKETRHEGNKVKTKVEVTFGGTTVRYEVEVEAEGGKVVKWEVRASDEFDERVKKS"
discrete_label = 1.0

[[record]]
item_sequence = "DETHLKLLEHFFKQWMTGNQQELRSLADPNVEYVYGEHRVRGREQMAKDLVRELHEMTISMRSVTSDIRGDQAVVTVNFQQDKNGEPDEVNVKMRAEVHNGRIKSMNAKFHQ"
discrete_label = 0.0

[[record]]
item_sequence = "DEHVLELAKELFDALSFGSPEDVHRNADKNARFRIGDTEIKGMEQYVETVHKIKRELRLSITVKSMTAHNGDADIKADAVFNHNGTPRRVKIEVTMHVHNGKAVSVDIQFRK"
discrete_label = 1.0

[[record]]
item_sequence = "DERENQENVEEMNRVLQSGDEDRMKELVDPNATAVVGEKRVHGRETIKDEIRRFKDHADHITVERVTAKGNSAIIDIVYNVNGRETTIIVIANVHNGKIRHLHFQKS"
discrete_label = 1.0

[[record]]
item_sequence = "DEDDLETLLKKIIDAMRNGDPKQMMRLVDENAKLVVGDKTVHGREEVSKWMKELRRQVDDNDYKDFHVQGDKARIDHFVNINGTNTERVIDIEVHNGRVKRLVYHEK"
discrete_label = 0.0


====

# ASSAY OVERVIEW: protease stability score; higher = more stable; yeast display proteolysis, trypsin and chymotrypsin;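 further: log10 excess protease needed over predicted unfolded state with 0 meaning unfolded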
EXPERIMENTAL ENDPOINT: protease stability score

[[record]]
item_sequence = "EEEKLQKVMEKMFRAVQNGNVEQLKKLGKEDVQFQFVDKRVQGAETYAQEMEKTHRQGNQFEIKEAQVKDDKVTMRTVVDYGDQRITVKAEAQYDGGRLDNARVELTEEYREVLKKG"
endpoint_result = -0.214

[[record]]
item_sequence = "DEEVKSRADEFIKALKTGDPETISRLMDPNAQVEVGDKTIHGRENIMREIHNLKHRMNLSMEINNVDVQGDTVNIDAVVRFTHNGKPSEHKVDIQVVAQGDKIDHVVFDSTK"
endpoint_result = 1.22

[[record]]
item_sequence = "DETEVAHRFLNQERRNWKTGNRQSFENMFRDNVRAQYGDKTVTGREDMKRWLDRILKEVDHVRIEIKDLKREPGRVSLDVVVVFEHNGHKDKKRYVIDAVASGDKMIIDQVQDK"
endpoint_result = 0.165

[[record]]
item_sequence = "DHEAQENAKHFIDALHTNDPRQVVEMIDPNARVNVGDKQLRGDSQVRKWWRRQNEEIRMHVKVDDIKVKGNNAVAKFKMEITHDGTPNDNHAEMTVTFHNGRATDLKVDEDK"
endpoint_result = 0.017

[[record]]
item_sequence = "DEEQHNFANKVWEAITKGDPDEIRRLFDENVRVKVGNKTITGREELSETMEKIKKHLRMRVQVDEIEFDGDQIRVHFTANLNVNGRPVEYRAELIMHVHDGRVKHMHLRVPEQVERELEK"
endpoint_result = 1.05

